Taken from BindingDB's records for doi:10.1016/s0960-894x(03)00129-x.

Measured IC50, listed per entry.
Biological target: Progesterone receptor (Rattus norvegicus)
Sequence (Q63449 whole entry): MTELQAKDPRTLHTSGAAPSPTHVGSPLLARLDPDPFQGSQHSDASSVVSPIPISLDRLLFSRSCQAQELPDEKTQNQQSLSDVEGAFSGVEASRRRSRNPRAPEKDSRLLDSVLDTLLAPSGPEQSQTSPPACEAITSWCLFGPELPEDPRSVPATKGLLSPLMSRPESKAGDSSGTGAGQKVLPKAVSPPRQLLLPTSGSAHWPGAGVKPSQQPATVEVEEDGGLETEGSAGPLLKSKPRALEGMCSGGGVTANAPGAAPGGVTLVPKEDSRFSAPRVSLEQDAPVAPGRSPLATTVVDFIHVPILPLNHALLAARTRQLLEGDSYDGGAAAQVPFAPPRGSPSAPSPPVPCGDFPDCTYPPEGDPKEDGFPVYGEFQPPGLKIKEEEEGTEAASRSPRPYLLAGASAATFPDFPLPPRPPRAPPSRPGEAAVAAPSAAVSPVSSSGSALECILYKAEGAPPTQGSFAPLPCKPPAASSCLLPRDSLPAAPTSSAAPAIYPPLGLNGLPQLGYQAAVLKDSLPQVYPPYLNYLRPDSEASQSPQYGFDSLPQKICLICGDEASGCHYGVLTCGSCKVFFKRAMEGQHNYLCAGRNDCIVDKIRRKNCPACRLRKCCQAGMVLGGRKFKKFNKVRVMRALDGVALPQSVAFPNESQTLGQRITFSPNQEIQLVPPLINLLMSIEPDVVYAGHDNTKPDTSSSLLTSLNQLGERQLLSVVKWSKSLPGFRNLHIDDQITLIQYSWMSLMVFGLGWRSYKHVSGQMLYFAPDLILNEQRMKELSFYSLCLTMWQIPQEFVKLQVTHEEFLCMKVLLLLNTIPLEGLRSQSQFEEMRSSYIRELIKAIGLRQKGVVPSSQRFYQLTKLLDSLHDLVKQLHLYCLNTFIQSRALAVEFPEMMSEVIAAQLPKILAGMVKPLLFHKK

{"columns": ["SMILES DATA", "ASSAY TARGET", "IC50"],
 "data": [
  ["N#Cc1cccc(-c2ccc3c(c2)C2(CCCCC2)C(=S)N3)c1", "Progesterone receptor (Rattus norvegicus)", "942 nM"],
  ["CC(=O)O[C@]1(C(C)=O)CC[C@H]2[C@@H]3C[C@H](C)C4=CC(=O)CC[C@]4(C)[C@H]3CC[C@@]21C", "Progesterone receptor (Rattus norvegicus)", "67.3 nM"],
  ["N#Cc1ccc(-c2ccc3c(c2)C2(CCCCC2)C(=S)N3)s1", "Progesterone receptor (Rattus norvegicus)", "92.5 nM"]
]}
